Sourced from the kinase profiling compilation of Christmann-Franck et al. (2016)

Molecular target: STK33 (human) (UniProt Q9BYT3)
Sequence (Q9BYT3 whole entry, looked up): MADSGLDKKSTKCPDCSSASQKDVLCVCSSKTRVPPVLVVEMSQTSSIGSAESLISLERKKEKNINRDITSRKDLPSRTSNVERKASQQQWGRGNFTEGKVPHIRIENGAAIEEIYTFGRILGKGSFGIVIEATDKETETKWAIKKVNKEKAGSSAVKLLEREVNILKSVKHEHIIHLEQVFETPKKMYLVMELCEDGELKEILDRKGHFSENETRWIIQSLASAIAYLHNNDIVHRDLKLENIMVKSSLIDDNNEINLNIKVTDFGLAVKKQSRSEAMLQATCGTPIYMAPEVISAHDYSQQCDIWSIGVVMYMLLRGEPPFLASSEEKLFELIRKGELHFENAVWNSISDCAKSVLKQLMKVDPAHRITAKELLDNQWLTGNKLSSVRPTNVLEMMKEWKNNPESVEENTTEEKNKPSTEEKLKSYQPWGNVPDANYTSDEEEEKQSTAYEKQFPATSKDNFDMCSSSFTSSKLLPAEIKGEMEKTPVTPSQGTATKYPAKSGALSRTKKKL
Experiment: radiometric filter-binding kinase assay
Details: compound 10.0 µM
Kind request: treat 90% as inclusive, so residual activity at 90% or higher is True, anything lower is False.

Ask: Item NC(=O)c1cc(-c2ccnc(NC3CCCCC3)c2)nc(N2CCNCC2)c1 with residual activity of 90% or above?
Reply: False

Ask: Reported residual activity reaches at least 90% for O=C(N[C@@H](COc1ccc2[nH]c(=O)[nH]c2c1)c1ccccc1)c1cccn(Cc2ccc(F)c(F)c2)c1=O ?
Reply: False

Ask: Please tell me: is the compound O=C(NOC[C@H](O)CO)c1ccc(F)c(F)c1Nc1ccc(I)cc1Cl at or over 90% in terms of residual activity?
Reply: True
